In this section we review reported pEC50 values for a set of compounds.
experimental_target: UniProtKB Q9Y466
protocol_text: Agonist activity at in human TLX LBD expressed in human HEK293T cells coexpressing Gal4-VP 16 assessed as increase in reporter activity measured after 14 hrs by luciferase reporter gene assay relative to control
Type: cell-based
particulars: read-out: EC50
pEC50: −log10 of the molar value.

>  <compound>
CCCNCC(O)COc1ccccc1C(=O)CCc1ccccc1 (racemic)

>  <sign>
=

>  <pEC50>
4.33

$$$$
>  <compound>
CC(C)NCC(O)COc1cccc2ccccc12 (racemic)

>  <sign>
=

>  <pEC50>
4.49

$$$$
>  <compound>
CC(C)OCC(O)COc1cccc2ccccc12 (configuration not stated)

>  <sign>
=

>  <pEC50>
4.08

$$$$
>  <compound>
CC(C)N(C)CC(O)COc1cccc2ccccc12 (configuration not stated)

>  <sign>
<

>  <pEC50>
4.00

$$$$
>  <compound>
CC(C)NC[C@H](O)COc1cccc2ccccc12

>  <sign>
=

>  <pEC50>
4.14

$$$$
>  <compound>
NCC(O)COc1cccc2ccccc12 (configuration not stated)

>  <sign>
=

>  <pEC50>
4.71

$$$$
>  <compound>
CC(C)NC[C@@H](O)COc1cccc2ccccc12

>  <sign>
=

>  <pEC50>
4.40

$$$$
>  <compound>
CN1CC(=O)N2[C@H](c3ccc4c(c3)OCO4)c3[nH]c4ccccc4c3C[C@@H]2C1=O

>  <sign>
=

>  <pEC50>
5.30

$$$$
>  <compound>
c1ccc2c3c([nH]c2c1)CNCC3

>  <sign>
=

>  <pEC50>
4.13

$$$$
>  <compound>
NC1CCc2[nH]c3ccccc3c2C1 (configuration not stated)

>  <sign>
=

>  <pEC50>
4.17

$$$$
>  <compound>
CC(C)NCCCOc1cccc2ccccc12

>  <sign>
=

>  <pEC50>
4.30

$$$$
>  <compound>
COC(CNC(C)C)COc1cccc2ccccc12 (configuration not stated)

>  <sign>
=

>  <pEC50>
4.28

$$$$

---

experimental_target: Nuclear receptor subfamily 2 group E member 1 (Homo sapiens, UniProt Q9Y466)
Sequence (Q9Y466 whole entry, the tested form may be a part): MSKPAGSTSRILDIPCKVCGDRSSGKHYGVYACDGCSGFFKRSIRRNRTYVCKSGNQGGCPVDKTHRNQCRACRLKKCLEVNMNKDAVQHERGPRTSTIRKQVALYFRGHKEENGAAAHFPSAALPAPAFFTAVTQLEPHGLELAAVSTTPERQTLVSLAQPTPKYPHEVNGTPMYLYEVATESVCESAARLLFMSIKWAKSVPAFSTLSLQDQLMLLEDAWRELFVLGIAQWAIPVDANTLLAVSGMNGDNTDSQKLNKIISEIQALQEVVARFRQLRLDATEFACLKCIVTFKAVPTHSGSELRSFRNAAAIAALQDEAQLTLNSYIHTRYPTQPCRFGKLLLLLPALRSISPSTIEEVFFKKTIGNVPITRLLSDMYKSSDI
protocol_text: Agonist activity at in human TLX LBD expressed in human HEK293T cells coexpressing Gal4-VP 16 assessed as remaining activity measured after 14 hrs by luciferase reporter gene assay relative to control
Type: cell-based
particulars: filed as agonist
In this section we review reported fold change (FC) values for a set of compounds.

>  <compound>
NC1CCc2[nH]c3ccccc3c2C1 (stereo unspecified)

>  <fold change (FC)>
0.5

$$$$
>  <compound>
CN1CC(=O)N2[C@H](c3ccc4c(c3)OCO4)c3[nH]c4ccccc4c3C[C@@H]2C1=O

>  <fold change (FC)>
0.62

$$$$
>  <compound>
CC(C)NCCCOc1cccc2ccccc12

>  <fold change (FC)>
0.42

$$$$
>  <compound>
CCCNCC(O)COc1ccccc1C(=O)CCc1ccccc1 (racemic) [PROPAFENONE]

>  <fold change (FC)>
0.2

$$$$
>  <compound>
NCC(O)COc1cccc2ccccc12 (stereo unspecified)

>  <fold change (FC)>
0.07

$$$$
>  <compound>
COC(CNC(C)C)COc1cccc2ccccc12 (stereo unspecified)

>  <fold change (FC)>
0.28

$$$$
>  <compound>
CC(C)NC[C@@H](O)COc1cccc2ccccc12 [DEXPROPRANOLOL]

>  <fold change (FC)>
0.4

$$$$
>  <compound>
c1ccc2c3c([nH]c2c1)CNCC3 [TRYPTOLINE]

>  <fold change (FC)>
0.4

$$$$
>  <compound>
CC(C)OCC(O)COc1cccc2ccccc12 (stereo unspecified)

>  <fold change (FC)>
0.29

$$$$
>  <compound>
CC(C)NC[C@H](O)COc1cccc2ccccc12 [LEVOPROPRANOLOL]

>  <fold change (FC)>
0.25

$$$$
>  <compound>
CC(C)NCC(O)COc1cccc2ccccc12 (racemic) [PROPRANOLOL]

>  <fold change (FC)>
0.08

$$$$
